I'd appreciate it if you could supply % AUC to COM701-hIgG4 values for the items below.
Target: T1, human PVRIG-mFc protein (Acro, PVG-H5253) (human, UniProt Q6DKI7 41-171, limits assumed)
T1 construct: bought protein
T1 sequence (looked up): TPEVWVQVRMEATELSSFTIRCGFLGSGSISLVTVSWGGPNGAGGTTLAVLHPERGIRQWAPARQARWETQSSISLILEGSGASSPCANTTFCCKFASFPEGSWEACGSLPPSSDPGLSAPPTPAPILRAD
Assay: FACS competition, PVRIG-mFc binding to CHO-K1-CD112 cells, competitor CD112 on cells
Experimental: A working solution of human PVRIG-mFc protein (Acro, PVG-H5253) prepared with staining buffer, 1 μg/mL (four-fold concentration), was added into a 96-well plate (50 μL PVRIG-mFc working solution per well). […] The diluted antibodies were added to the well containing 50 μL of PVRIG-mFc. […] After staining, the cells were washed twice with staining buffer, finally resuspended with 200 μL staining buffer and analyzed by flow cytometry (BD, Canto II). […]
Numbers only; they are read as %.

// query Item PVRIG-A75 (Fc fusion, heavy chain antibody VHH-hinge-CH2-CH3, human IgG1 constant part; not shown: human IgG1 hinge-CH2-CH3) QLQLVESGGGLVQSGGSLRLSCAASGRTRSMYVMGWFRQAPGKEREFVGRIKWSGDTTYTSYADFVKGRFTLYGNQARNTVYLQMNSLKPEDTAVYSCAASKFPVSGVPEHYDYWGQGTQVTVSS has what recorded % AUC to COM701-hIgG4?
// result 101

// query And the next one, PVRIG-A113 (Fc fusion, heavy chain antibody VHH-hinge-CH2-CH3, human IgG1 constant part; not shown: human IgG1 hinge-CH2-CH3) QLQLVESGGGLVQSGGSLRLSCAASGRTRSMYVMGWFRQAPGKEREFVGRIKWSGDTTYTSYADFVKGRFTLYGNQARNTVYLQMNSLKPEDTAVYYCAALPSDYDYRAASYGVDYWGKGTLVTVSS ?
// result 172

// query And the next one, PVRIG-A104 (Fc fusion, heavy chain antibody VHH-hinge-CH2-CH3, human IgG1 constant part; not shown: human IgG1 hinge-CH2-CH3) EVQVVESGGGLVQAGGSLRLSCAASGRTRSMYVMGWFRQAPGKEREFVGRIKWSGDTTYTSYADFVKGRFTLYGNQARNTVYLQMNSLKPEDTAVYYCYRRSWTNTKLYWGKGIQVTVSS ?
// result 152
